System: histamine-induced bronchospasm
method.notes: inhibition of histamine-induced bronchospasm in anesthetized guinea pigs
Type: in vivo, guinea pig
condition.summary: 20 μmol/kg i.v.; 2 min
measured.metric: inhibition of histamine-induced bronchospasm, TVi (%)
Kindly provide the numeric value in % only, without the unit symbol.

> print(dat)
                                   compound  measured.number
1       COc1cc(-c2ccc(=O)[nH]n2)ccc1OCC(C)C              153
2  Cn1c(=O)c2[nH]cnc2n(C)c1=O [Theophylline, theophylline, reference compound]               45

Sample `COc1ccc(-c2ccc(=O)[nH]n2)cc1OC(C)C` — what was its inhibition of histamine-induced bronchospasm, TVi?
117

Can you check `COc1ccc(-c2ccc(=O)[nH]n2)cc1OCC(C)C` next?
99
